test_system: D2 (Rattus norvegicus)
Sequence (P61169 whole entry): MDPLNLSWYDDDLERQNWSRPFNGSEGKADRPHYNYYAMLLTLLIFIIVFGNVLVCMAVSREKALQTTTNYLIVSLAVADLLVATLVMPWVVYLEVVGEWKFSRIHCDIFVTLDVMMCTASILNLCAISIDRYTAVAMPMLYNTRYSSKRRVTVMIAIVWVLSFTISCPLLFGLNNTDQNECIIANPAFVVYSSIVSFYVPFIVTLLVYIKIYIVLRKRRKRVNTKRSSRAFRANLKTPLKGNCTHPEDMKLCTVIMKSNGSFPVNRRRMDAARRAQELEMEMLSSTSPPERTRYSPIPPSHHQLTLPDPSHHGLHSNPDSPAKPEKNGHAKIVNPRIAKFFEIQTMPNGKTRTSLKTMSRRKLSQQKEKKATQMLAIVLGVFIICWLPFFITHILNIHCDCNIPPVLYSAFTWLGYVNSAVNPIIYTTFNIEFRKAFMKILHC
assay_text: Affinity for the dopamine D-2 receptor: 3H-spiroperidol (Spiper.) binding, homogenized limbic brain tissue
Design: homogenized limbic brain tissue is incubated with; from tissue; host or cells: limbic brain tissue, homogenized
measure: IC50

Item O=C1CCC(=O)N1CCCNCC1CCc2ccc(O)cc2O1 (stereo not shown) was tested on D2 (Rattus norvegicus); the reported IC50 is 2180 nM

----------
test_system: 5-HT1a (Homo sapiens)
Sequence (P08908 whole entry, species assumed): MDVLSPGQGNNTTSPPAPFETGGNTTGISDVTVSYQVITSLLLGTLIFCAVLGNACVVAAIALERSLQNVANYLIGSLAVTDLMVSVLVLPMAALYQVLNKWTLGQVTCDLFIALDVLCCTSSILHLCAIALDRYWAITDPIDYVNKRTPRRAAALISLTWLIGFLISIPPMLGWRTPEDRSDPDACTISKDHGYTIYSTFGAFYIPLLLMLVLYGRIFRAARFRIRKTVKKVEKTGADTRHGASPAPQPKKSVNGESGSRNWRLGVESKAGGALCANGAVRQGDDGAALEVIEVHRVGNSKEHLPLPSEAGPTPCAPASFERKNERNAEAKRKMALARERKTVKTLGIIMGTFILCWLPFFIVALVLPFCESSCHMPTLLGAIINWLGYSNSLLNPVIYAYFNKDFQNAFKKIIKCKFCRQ
assay_text: 5-HT1a IC50
Type: binding
measure: IC50 (nM)
Numbers only, in nM.

Lab note: measured IC50 of O=C1CCC(=O)N1CCCNCC1CCc2ccc(O)cc2O1 (stereo not shown) was 303

----------
test_system: D2 (Rattus norvegicus)
assay_text: Affinity for the dopamine autoreceptor: 3H-quinpirole (Quin.) binding, homogenized rat striatal brain tissue
Design: homogenized rat striatal brain tissue; from tissue; host or cells: rat striatal brain tissue, homogenized
condition_details: 3H-quinpirole, rat striatal brain tissue
measure: IC50 (nM)
Numbers only, in nM.

Lab note: measured IC50 of O=C1CCC(=O)N1CCCNCC1CCc2ccc(O)cc2O1 (stereo not shown) was 9.29
